Each recorded value in this set is attributed to patent US11053281B2.

Each entry below lists one item and its recorded Kd value.
Molecular target: polyclonal human IgG
Assay: Adsorption isotherm of peptoid affinity resins against polyclonal human IgG
Assay type: binding
Details: Table 3; peptoid ligand conjugated to chromatographic resin, IgG in PBS, hyperbola fit of isotherm; Kd given in molar; read-out: Kd x 10^−6
*1 amine or outer side, *2 acyl side, *3 side chain or, on linkers, in order; H or OH if unused. Where a SMILES comes first, the peptide text is derived from it. [ ]: non-standard residue; d: D form. Gly(N(CH2)2(3-indolyl)) = O=C(O)CNCCc1c[nH]c2ccccc12; NGly(CH2(3-pyridyl)) = O=C(O)CNCc1cccnc1; Gly(N(CH2)3NH2) = NCCCNCC(=O)O; Cysteamide = C(CS[*:3])N[*:1]; Nphe = O=C(O)CNCc1ccccc1; NPrGly = CCCNCC(=O)O; Nme = COCCNCC(=O)O; Sar = CNCC(=O)O
assay.readout: Kd (µM)

INSERT INTO assay_data (compound, value_observed) VALUES
  ('COCCN(CC(=O)N(CCCN)CC(=O)N(CCc1c[nH]c2ccccc12)CC(=O)NCCS)C(=O)CNCc1cccnc1 [Ligand 16-81-6] (H-[NGly(CH2(3-pyridyl))][Nme][Gly(N(CH2)3NH2)][Gly(N(CH2)2(3-indolyl))]-Cysteamide)', 3.6),
  ('O=C(CN(CCc1c[nH]c2ccccc12)C(=O)CN(Cc1cccnc1)C(=O)CN(CCc1c[nH]c2ccccc12)C(=O)CNCc1cccnc1)NCCS', 2.5),
  ('CCCNCC(=O)N(CC(=O)N(CC(=O)N(C)CC(=O)N(CCc1c[nH]c2ccccc12)CC(=O)N(CCC)CC(=O)N(CCc1c[nH]c2ccccc12)CC(=O)NCCS)Cc1ccccc1)Cc1cccnc1 [Ligand 12-79-4] (H-[NPrGly][NGly(CH2(3-pyridyl))][Nphe][Sar][Gly(N(CH2)2(3-indolyl))][NPrGly][Gly(N(CH2)2(3-indolyl))]-Cysteamide)', 3.6);

###

Biological target: polyclonal human IgG
Assay: Adsorption isotherm of peptoid affinity resins against polyclonal human IgG
Type: binding
Settings: Table 3; peptoid ligand conjugated to chromatographic resin, IgG in PBS, hyperbola fit of isotherm; Kd given in molar; read-out: Kd x 10^−6
*1 amine or outer side, *2 acyl side, *3 side chain or, on linkers, in order; H or OH if unused. Where a SMILES comes first, the peptide text is derived from it. [ ]: non-standard residue; d: D form. Gly(N(CH2)2(3-indolyl)) = O=C(O)CNCCc1c[nH]c2ccccc12; Gly(N-(CH2)3-guanidino) = N=C(N)NCCCNCC(=O)O; NGly(CH2(3-pyridyl)) = O=C(O)CNCc1cccnc1; Gly(N(CH2)3NH2) = NCCCNCC(=O)O; Cysteamide = C(CS[*:3])N[*:1]; NPrGly = CCCNCC(=O)O; Nme = COCCNCC(=O)O; Sar = CNCC(=O)O
Each entry below lists one item and its recorded Kd value.
assay.readout: Kd (µM)

INSERT INTO assay_data (compound, assay_readout, value_observed) VALUES
  ('CCCN(CC(=O)N(CCc1c[nH]c2ccccc12)CC(=O)NCCS)C(=O)CN(CCc1c[nH]c2ccccc12)C(=O)CN(C)C(=O)CN(CCCNC(=N)N)C(=O)CN(CCOC)C(=O)CNCc1cccnc1 [Ligand 15-28-5] (H-[NGly(CH2(3-pyridyl))][Nme][Gly(N-(CH2)3-guanidino)][Sar][Gly(N(CH2)2(3-indolyl))][NPrGly][Gly(N(CH2)2(3-indolyl))]-Cysteamide)', 'Kd', 6.1),
  ('COCCN(CC(=O)N(CC(=O)NCCS)Cc1cccnc1)C(=O)CN(CCCN)C(=O)CNCCc1c[nH]c2ccccc12 [Ligand 16-81-7] (H-[Gly(N(CH2)2(3-indolyl))][Gly(N(CH2)3NH2)][Nme][NGly(CH2(3-pyridyl))]-Cysteamide)', 'Kd', 4.8),
  ('CCCN(CC(=O)N(CCc1c[nH]c2ccccc12)CC(=O)NCCS)C(=O)CN(CCc1c[nH]c2ccccc12)C(=O)CN(C)C(=O)CN(Cc1cccnc1)C(=O)CN(CCOC)C(=O)CNCc1cccnc1 [Ligand 15-91-1] (H-[NGly(CH2(3-pyridyl))][Nme][NGly(CH2(3-pyridyl))][Sar][Gly(N(CH2)2(3-indolyl))][NPrGly][Gly(N(CH2)2(3-indolyl))]-Cysteamide)', 'Kd', 66);

###

Test system: polyclonal human IgG
Test: Adsorption isotherm of peptoid affinity resins against polyclonal human IgG
Format: binding
Set-up: unit not given here
Conditions: Table 3; maximum capacity (qmax) of resin from isotherm fit
*1 amine or outer side, *2 acyl side, *3 side chain or, on linkers, in order; H or OH if unused. Where a SMILES comes first, the peptide text is derived from it. [ ]: non-standard residue; d: D form. Gly(N(CH2)2(3-indolyl)) = O=C(O)CNCCc1c[nH]c2ccccc12; N(2-mercaptoethyl)Gly = O=C(CN(CCS[*:3])[*:1])[*:2]; Gly(N-(CH2)3-guanidino) = N=C(N)NCCCNCC(=O)O; NGly(CH2(3-pyridyl)) = O=C(O)CNCc1cccnc1; Cysteamide = C(CS[*:3])N[*:1]; NPrGly = CCCNCC(=O)O; Nme = COCCNCC(=O)O; Sar = CNCC(=O)O
assay.readout: Qmax

INSERT INTO measurements (molecule, assay_readout, value_observed) VALUES
  ('CCCN(CC(=O)N(CCc1c[nH]c2ccccc12)CC(=O)NCCS)C(=O)CN(CCc1c[nH]c2ccccc12)C(=O)CN(C)C(=O)CN(Cc1cccnc1)C(=O)CN(CCOC)C(=O)CNCc1cccnc1 [Ligand 15-91-1] (H-[NGly(CH2(3-pyridyl))][Nme][NGly(CH2(3-pyridyl))][Sar][Gly(N(CH2)2(3-indolyl))][NPrGly][Gly(N(CH2)2(3-indolyl))]-Cysteamide)', 'Qmax', 80),
  ('O=C(CN(CCc1c[nH]c2ccccc12)C(=O)CN(Cc1cccnc1)C(=O)CN(CCc1c[nH]c2ccccc12)C(=O)CNCc1cccnc1)NCCS', 'Qmax', 41),
  ('CCCN(CC(=O)N(CCc1c[nH]c2ccccc12)CC(=O)NCCS)C(=O)CN(CCc1c[nH]c2ccccc12)C(=O)CN(C)C(=O)CN(Cc1cccnc1)C(=O)CN(CCSC)C(=O)CNCc1cccnc1 [Ligand 16-64-2] (H-[NGly(CH2(3-pyridyl))][N(2-mercaptoethyl)Gly](Me)[NGly(CH2(3-pyridyl))][Sar][Gly(N(CH2)2(3-indolyl))][NPrGly][Gly(N(CH2)2(3-indolyl))]-Cysteamide)', 'Qmax', 49),
  ('CCCN(CC(=O)N(CCc1c[nH]c2ccccc12)CC(=O)NCCS)C(=O)CN(CCc1c[nH]c2ccccc12)C(=O)CN(C)C(=O)CN(CCCNC(=N)N)C(=O)CN(CCOC)C(=O)CNCc1cccnc1 [Ligand 15-28-5] (H-[NGly(CH2(3-pyridyl))][Nme][Gly(N-(CH2)3-guanidino)][Sar][Gly(N(CH2)2(3-indolyl))][NPrGly][Gly(N(CH2)2(3-indolyl))]-Cysteamide)', 'Qmax', 61);

###

Molecular target: polyclonal human IgG
Assay: Adsorption isotherm of peptoid affinity resins against polyclonal human IgG
Assay type: binding
Conditions: Table 2; peptoid ligand conjugated to chromatographic resin, IgG in PBS, hyperbola fit of isotherm; Kd given in molar; read-out: Kd x 10^−6
*1 amine or outer side, *2 acyl side, *3 side chain or, on linkers, in order; H or OH if unused. Where a SMILES comes first, the peptide text is derived from it. [ ]: non-standard residue; d: D form. Gly(N(CH2)2(3-indolyl)) = O=C(O)CNCCc1c[nH]c2ccccc12; Gly(N-(CH2)3-guanidino) = N=C(N)NCCCNCC(=O)O; NGly(CH2(3-pyridyl)) = O=C(O)CNCc1cccnc1; N(CH2CH2COOH)Gly = O=C(O)CCNCC(=O)O; Gly(N(CH2)3NH2) = NCCCNCC(=O)O; Cysteamide = C(CS[*:3])N[*:1]; Nme = COCCNCC(=O)O; Sar = CNCC(=O)O
Each entry below lists one item and its recorded Kd value.
assay.readout: Kd

INSERT INTO measurements (compound, assay_readout, value_observed) VALUES
  ('CCCNCC(=O)N(CCc1c[nH]c2ccccc12)CC(=O)NCC(=O)N(CCCNC(=N)N)CC(=O)N(CCc1c[nH]c2ccccc12)CC(=O)N(CC(=O)NCCS)Cc1cccnc1', 'Kd', '9.3 µM'),
  ('CN(CC(=O)NCCS)C(=O)CN(CCC(=O)O)C(=O)CN(Cc1cccnc1)C(=O)CN(CCCNC(=N)N)C(=O)CN(CCC(=O)O)C(=O)CN(CCc1c[nH]c2ccccc12)C(=O)CNCc1cccnc1 [Ligand 18-28-9] (H-[NGly(CH2(3-pyridyl))][Gly(N(CH2)2(3-indolyl))][N(CH2CH2COOH)Gly][Gly(N-(CH2)3-guanidino)][NGly(CH2(3-pyridyl))][N(CH2CH2COOH)Gly][Sar]-Cysteamide)', 'Kd', '10 µM'),
  ('COCCNCC(=O)N(CCc1c[nH]c2ccccc12)CC(=O)N(CCc1c[nH]c2ccccc12)CC(=O)N(CCCN)CC(=O)N(CC(=O)N(CCC(=O)O)CC(=O)N(C)CC(=O)NCCS)Cc1cccnc1 [Ligand 12-73-2] (H-[Nme][Gly(N(CH2)2(3-indolyl))][Gly(N(CH2)2(3-indolyl))][Gly(N(CH2)3NH2)][NGly(CH2(3-pyridyl))][N(CH2CH2COOH)Gly][Sar]-Cysteamide)', 'Kd', '2.7 µM');
